From: ChEMBL document CHEMBL2396513

Experiment: Inhibition of Plasmodium falciparum falcipain-2 peptidolytic activity using Z-Phe-Arg-AMC as substrate measured over 30 mins by spectrofluorimetric analysis

# Smiles string, IC50 (nM)
records = [
    ("COCc1ccc(C(=O)Nc2ccc(S(=O)(=O)O)c3cc(S(=O)(=O)O)cc(S(=O)(=O)O)c23)cc1NC(=O)c1cccc(NC(=O)Nc2cccc(C(=O)Nc3cc(C(=O)Nc4ccc(S(=O)(=O)O)c5cc(S(=O)(=O)O)cc(S(=O)(=O)O)c45)ccc3COC)c2)c1", 60),
    ("O=C(Nc1cccc(C(=O)Nc2ccc(S(=O)(=O)O)cc2S(=O)(=O)O)c1)Nc1cccc(C(=O)Nc2ccc(S(=O)(=O)O)cc2S(=O)(=O)O)c1", 98),
    ("O=C(Nc1cccc(C(=O)Nc2ccc(S(=O)(=O)O)c3cc(S(=O)(=O)O)cc(S(=O)(=O)O)c23)c1)Nc1cccc(C(=O)Nc2ccc(S(=O)(=O)O)c3cc(S(=O)(=O)O)cc(S(=O)(=O)O)c23)c1", 167),
]

* * *

Experiment: Inhibition of Plasmodium falciparum falcipain-2 peptidolytic activity using Z-Phe-Arg-AMC as substrate measured over 30 mins by spectrofluorimetric analysis
Mark Yes only for IC50 values smaller than 80 nM; exact matches and larger values are No.

# Smiles string, Category
records = [
    ("O=C(Nc1cccc(C(=O)Nc2cc(C(=O)Nc3ccc(S(=O)(=O)O)c4cc(S(=O)(=O)O)cc(S(=O)(=O)O)c34)ccc2-c2ccccc2)c1)Nc1cccc(C(=O)Nc2cc(C(=O)Nc3ccc(S(=O)(=O)O)c4cc(S(=O)(=O)O)cc(S(=O)(=O)O)c34)ccc2-c2ccccc2)c1", "Yes"),
    ("O=C(Nc1cccc(C(=O)Nc2cccc(C(=O)Nc3ccc(S(=O)(=O)O)c4cc(S(=O)(=O)O)cc(S(=O)(=O)O)c34)c2)c1)Nc1cccc(C(=O)Nc2cccc(C(=O)Nc3ccc(S(=O)(=O)O)c4cc(S(=O)(=O)O)cc(S(=O)(=O)O)c34)c2)c1", "Yes"),
    ("O=C(Nc1cccc(C(=O)Nc2cc(C(=O)Nc3ccc(S(=O)(=O)O)c4cc(S(=O)(=O)O)cc(S(=O)(=O)O)c34)ccc2F)c1)Nc1cccc(C(=O)Nc2cc(C(=O)Nc3ccc(S(=O)(=O)O)c4cc(S(=O)(=O)O)cc(S(=O)(=O)O)c34)ccc2F)c1", "Yes"),
    ("COc1ccc(C(=O)Nc2ccc(S(=O)(=O)O)c3cc(S(=O)(=O)O)cc(S(=O)(=O)O)c23)cc1NC(=O)c1cccc(NC(=O)Nc2cccc(C(=O)Nc3cc(C(=O)Nc4ccc(S(=O)(=O)O)c5cc(S(=O)(=O)O)cc(S(=O)(=O)O)c45)ccc3OC)c2)c1", "Yes"),
    ("CC(C)c1ccc(C(=O)Nc2ccc(S(=O)(=O)O)c3cc(S(=O)(=O)O)cc(S(=O)(=O)O)c23)cc1NC(=O)c1cccc(NC(=O)Nc2cccc(C(=O)Nc3cc(C(=O)Nc4ccc(S(=O)(=O)O)c5cc(S(=O)(=O)O)cc(S(=O)(=O)O)c45)ccc3C(C)C)c2)c1", "No"),
    ("CC1=CCC(C(=O)/N=C2\\CC=C(S(=O)(=O)O)c3cc(S(=O)(=O)O)cc(S(=O)(=O)O)c32)=C/C1=N/C(=O)C1=CC=C/C(=N\\C(=O)/N=C2\\C=CC=C(C(=O)/N=C3/CC(C(=O)/N=C4\\CC=C(S(=O)(=O)O)c5cc(S(=O)(=O)O)cc(S(=O)(=O)O)c54)=CC=C3C)C2)C1", "No"),
]
